# credit: the Human Domainome abundance scans (Beltran et al. 2025)

B1: Homeobox protein cut-like 1, residues 548 to 629; numbered along this chain, P39880 (parent)
chain: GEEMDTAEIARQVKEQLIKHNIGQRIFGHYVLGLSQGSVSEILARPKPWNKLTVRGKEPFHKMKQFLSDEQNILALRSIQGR

variants of: B1; test: abundance fitness (aPCA) (normalised: wild type 0, dead -1); higher = more abundant; growth selection in yeast, the domain comes from the species named; conditions: Homo sapiens
// class assignment uses abundance fitness with these ranges: bottom (below -0.2), middle (-0.2 to below -0.06), top (-0.06 or more)

Dear colleague, I would appreciate it if you could identify the bin for Q65Y and reply at your convenience.
middle

Dear colleague, I would appreciate it if you could identify the bin for E2L and reply at your convenience.
middle

Dear colleague, I would appreciate it if you could identify the bin for E58V and reply at your convenience.
middle

Dear colleague, I would appreciate it if you could identify the bin for I26S and reply at your convenience.
middle

Dear colleague, I would appreciate it if you could identify the bin for G1C and reply at your convenience.
top

Dear colleague, I would appreciate it if you could identify the bin for S68P and reply at your convenience.
bottom

Dear colleague, I would appreciate it if you could identify the bin for A44L and reply at your convenience.
top

Dear colleague, I would appreciate it if you could identify the bin for S40A and reply at your convenience.
top

Dear colleague, I would appreciate it if you could identify the bin for I42A and reply at your convenience.
bottom

Dear colleague, I would appreciate it if you could identify the bin for D5K and reply at your convenience.
bottom
